Let's look at some binders and their measured Cross-Reactivity Screen (mAb at 10 ug/mL).
- measurement target: T1, murine full-length Tie2 on HEK293 cells (mouse, UniProt Q02858 23-1122)
- T1 construct: whole, on cells; also called HEK293/Murine Tie2; HEK/mTie2
- T1 sequence (Q02858 23-1122): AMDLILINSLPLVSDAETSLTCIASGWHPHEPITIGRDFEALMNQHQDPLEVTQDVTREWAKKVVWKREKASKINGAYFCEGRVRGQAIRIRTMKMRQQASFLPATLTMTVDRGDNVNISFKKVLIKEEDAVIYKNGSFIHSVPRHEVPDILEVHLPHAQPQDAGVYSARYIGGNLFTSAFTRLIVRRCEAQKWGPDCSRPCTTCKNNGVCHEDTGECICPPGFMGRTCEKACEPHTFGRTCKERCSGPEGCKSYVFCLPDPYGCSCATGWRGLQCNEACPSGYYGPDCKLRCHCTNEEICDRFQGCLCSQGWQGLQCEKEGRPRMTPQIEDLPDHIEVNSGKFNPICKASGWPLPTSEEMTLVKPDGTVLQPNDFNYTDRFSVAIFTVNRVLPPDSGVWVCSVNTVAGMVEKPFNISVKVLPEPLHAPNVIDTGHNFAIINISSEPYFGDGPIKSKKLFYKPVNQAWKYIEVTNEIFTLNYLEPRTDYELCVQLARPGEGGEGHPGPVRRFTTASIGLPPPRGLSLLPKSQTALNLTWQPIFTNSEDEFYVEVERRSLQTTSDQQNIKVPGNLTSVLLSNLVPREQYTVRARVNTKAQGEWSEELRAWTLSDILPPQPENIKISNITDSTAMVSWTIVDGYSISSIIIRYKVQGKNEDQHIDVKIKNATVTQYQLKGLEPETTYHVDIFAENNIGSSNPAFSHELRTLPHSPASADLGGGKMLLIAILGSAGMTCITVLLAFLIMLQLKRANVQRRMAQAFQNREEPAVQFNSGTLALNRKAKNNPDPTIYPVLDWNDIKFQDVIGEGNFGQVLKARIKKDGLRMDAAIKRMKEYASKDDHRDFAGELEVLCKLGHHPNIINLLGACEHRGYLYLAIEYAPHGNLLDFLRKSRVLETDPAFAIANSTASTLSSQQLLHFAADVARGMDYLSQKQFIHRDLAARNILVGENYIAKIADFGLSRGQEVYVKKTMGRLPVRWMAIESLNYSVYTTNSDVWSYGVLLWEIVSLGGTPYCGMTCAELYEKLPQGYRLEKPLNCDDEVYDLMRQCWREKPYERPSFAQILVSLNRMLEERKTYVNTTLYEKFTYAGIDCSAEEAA
- measurement protocol: flow cytometry on HEK293/Murine Tie2 cells, mAb at 10 ug/mL
Simply state the number, no unit and no words.

# binder, readout value
records = [
    ("human anti-Tie2 antibody #1 (antibody, V domains shown, also called Ab #1; Antibody Clone # 1) VH: DVQLVESGGGVVRPGESLRLSCAASGFTFSSYAMSWVRQAPGEGLEWVARISDYTIYYADSVKGRFTISRDNSKNTLYLQMNSLRAEDTAVYYCAKSGPKSGKYWNNFFDSWGLGTLVTVSS VL: EIVLTQSPGTLSVSPGERATLTCRASQSVKTDLAWYQQKPGQAPRLLIYGATTRATGIPARFSGSGSGTEFTLTITNLQSEDFAVYYCQQYYVWPPLTFGGGTKVEIK", 0.4),
    ("anti-Tie2 antibody #5 (antibody, V domains shown, also called Ab #5; Antibody Clone # 5) VH: DVQLVESGGGVVRPGESLRLSCTASGFSFDVYAMTWVRQAPGKGLEWLTLISGTGRMTYYADSVKGRFTVSRDNSKKTLYLQMNSLRAEDTAVYYCAKDPFGHGFFDYWGLGTLVTVSS VL: EIVLTQSPGTLSLSPGERATLSCRASQTVGSKLAWYQQKPGQAPRLLIYDASTRATGIPDRFSGSGSGTDFTLTISSLQSEDFAVYYCQQYNNWPPLTFGGGTKVEIK", 0.2),
    ("human anti-Tie2 antibody #2 (antibody, V domains shown, also called Ab #2; Antibody Clone # 2) VH: DVQLVESGGGVVRPGESLRLSCAASGFSFINFAMTWVRQAPGEGPEWVSLISDDGRGNRPYYADSVKGRFTISRDNSKNILYLQMNSLRVEDTATYYCAKVSWDVFFDYWGLGTVVTVSS VL: EIVLTQSPGTVSLSPGERVTLSCRASQPIDVYLAWYQQKPGQAPRLLIYGANRRAIDIPDRFSGSGSGTEFTLTINSLQNEDFAVYFCQQYMTWPPVTFGGGTKVEIK", 41.7),
]

Below: the item to evaluate.
Cross-Reactivity Screen (mAb at 10 ug/mL) measured on human anti-Tie2 antibody #3 (antibody, V domains shown, also called Ab #3; Antibody Clone # 3) VH: DVQLVESGGGVVRPGESLRLSCTASGFTFDSYGMSWVRQAPGKGLEWVSSINVGDNTYYADSVRGRFIISRDSSRNTLYLQMNSLTAEDTAVYYCANWNSFFDYWGLGTLVTVSS VL: EIVLTQSPGTLSLSPGEIATLSCRASQNVRSDLAWYQQKPGQAPRLLIYDASNRATGIPDRFSGSGSGTDFTLTISSLQSEDFAVYYCQQYSNWPPLTFGGGTKVEIK = 32.5
